Molecular target: T1, human ROR1 on cells (HEK293T-hROR1, PANC-1, A549) (human, UniProt Q01973 30-937)
T1 construct: whole, on cells; one molecule for the three cell lines; also called huROR1; cell surface ROR1
T1 sequence (Q01973 30-937): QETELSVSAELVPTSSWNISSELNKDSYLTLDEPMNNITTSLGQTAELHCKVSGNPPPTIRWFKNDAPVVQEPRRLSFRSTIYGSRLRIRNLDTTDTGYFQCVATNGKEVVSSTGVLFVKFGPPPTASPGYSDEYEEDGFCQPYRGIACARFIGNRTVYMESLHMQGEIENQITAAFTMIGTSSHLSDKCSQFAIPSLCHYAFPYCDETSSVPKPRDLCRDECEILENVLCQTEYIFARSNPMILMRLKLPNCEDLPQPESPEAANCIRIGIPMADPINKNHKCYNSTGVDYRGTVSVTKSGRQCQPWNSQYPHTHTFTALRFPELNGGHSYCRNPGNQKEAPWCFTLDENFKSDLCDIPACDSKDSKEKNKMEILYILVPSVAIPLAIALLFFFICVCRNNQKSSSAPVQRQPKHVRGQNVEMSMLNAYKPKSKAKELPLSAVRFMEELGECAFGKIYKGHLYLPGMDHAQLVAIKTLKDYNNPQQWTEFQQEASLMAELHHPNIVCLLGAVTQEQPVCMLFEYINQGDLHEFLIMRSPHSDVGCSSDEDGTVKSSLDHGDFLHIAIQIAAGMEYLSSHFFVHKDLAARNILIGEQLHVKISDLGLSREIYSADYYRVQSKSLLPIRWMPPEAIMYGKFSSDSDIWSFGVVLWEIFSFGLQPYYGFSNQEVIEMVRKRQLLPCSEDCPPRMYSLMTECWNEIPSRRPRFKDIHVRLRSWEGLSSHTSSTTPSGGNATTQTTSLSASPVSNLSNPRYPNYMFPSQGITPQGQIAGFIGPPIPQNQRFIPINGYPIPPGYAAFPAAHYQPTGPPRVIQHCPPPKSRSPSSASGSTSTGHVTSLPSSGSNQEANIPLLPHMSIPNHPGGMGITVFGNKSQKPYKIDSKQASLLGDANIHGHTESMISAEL
Experiment: flow cytometry, PANC-1 cells
Assay Readout: EC50 (µg/mL)
Give the quantity in µg/mL, number only.

Take a look at these entries with their results.
| Binder | Quantitative Result |
| --- | --- |
| PR303145 (antibody, human IgG1, V domains shown, HCAb (heavy chain-only, human IgG1 Fc), no light chain) VH: QVQLVESGGGLVKPGGSLRISCAASGFTFSNYNMSWIRQAPGKGVEWVSHISGSGRTIYYAESVKGRFTISRDNAKNSLYLQMNSLRAEDTAMYYCARDLSSGWYEDFDYWGQGTLVTVSS | 0.654 |
| PR303147 (antibody, human IgG1, V domains shown, HCAb (heavy chain-only, human IgG1 Fc), no light chain) VH: EVQLVESGGGLVQPGGSLRLSCAASGFTFSNFWMYWVRQAPGKGLVWVSRINSDGSSTNYADSVKGRFTISRDNAKNTLYLQMNSLRVEDTAVYSCAREGSGWYEDFDYWGQGTLVTVSS | 7.77 |
| PR000374 (antibody, human IgG1, kappa, V domains shown, positive control; also called Bench marker 1) VH: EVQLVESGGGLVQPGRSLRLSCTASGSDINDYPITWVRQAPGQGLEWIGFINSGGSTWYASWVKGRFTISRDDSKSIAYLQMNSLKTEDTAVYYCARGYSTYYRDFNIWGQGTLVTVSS VL: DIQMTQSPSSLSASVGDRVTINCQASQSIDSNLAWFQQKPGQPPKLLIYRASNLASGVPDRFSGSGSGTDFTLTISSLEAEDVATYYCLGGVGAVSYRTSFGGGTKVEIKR | 0.905 |
| PR303125 (antibody, human IgG1, V domains shown, HCAb (heavy chain-only, human IgG1 Fc), no light chain) VH: EVQLLESGGGLVQPGGSLRLSCAASGFTFSSHAMSWVRQAPGKGLEWVSAISGSGDSTHYAASVKGRFTISRDNSKNTLYLQMNSLRAEDTAVYYCETLLRFLESLGNDGFKIWGQGTMVTVSS | 0.463 |
| PR303199 (antibody, human IgG1, V domains shown, HCAb (heavy chain-only, human IgG1 Fc), no light chain) VH: EVQLVESGGGLVKPGGSLRLSCAASGFTFSDYYMSWIRQAPGKGLEWIAYISSSGSTIYYADSVKGRFTISRDNAKNSLYLQMNSLRAEDTAIYYCAREYYGSENYDHFDYWGQGTLVTVSS | 11.3 |

Then this binder:
## Task Which value of EC50 has been reported for PR303155 (antibody, human IgG1, V domains shown, HCAb (heavy chain-only, human IgG1 Fc), no light chain) VH: EVQLVESGGGLVKPGGSLRLSCAASGFTLSDYYMSWIRQAPGKGLEWISYISSNGSTIYYADSVKGRFTISRDNARNSLYLQMNSLRAEDTALYYCARDVSSGWYEDFDYWGQGTLVTVSS in the records?
## Result 1.07

Cited source for all entries: patent US20250257130A1
